assay.overview: in vitro
details: human, hela cells, % viability
quantity.kind: viability at 28.5 h, 10 µM (%)
Provide the reading as a plain figure in %.

Record summary for O=[N+]([O-])c1cccc(-c2nc(-c3ccccc3)c(-c3ccc4oc5ccc(-c6[nH]c(-c7cccc([N+](=O)[O-])c7)nc6-c6ccccc6)cc5c4c3)[nH]2)c1 [CBK261433] : reported viability at 28.5 h, 10 µM = 87.5

Record summary for Cc1c(C(=O)N2CCC(c3ccncc3)CC2)oc2ccccc12 [CBK282413] : reported viability at 28.5 h, 10 µM = 109

Record summary for O=C(CN1CCC2(CC1)CN(C(=O)CO)c1ccccc12)Nc1ccc(F)c(Cl)c1 [CBK131509] : reported viability at 28.5 h, 10 µM = 92.3

Record summary for COc1ccc(CNCCN)cc1 [CBK013010] : reported viability at 28.5 h, 10 µM = 98.2

Record summary for CCOC(=O)c1ccccc1NC(=O)N[C@@H]1CC[C@@]2(c3ccc(OC)c(OC)c3)CCN(C)[C@H]2C1 [CBK047494T] : reported viability at 28.5 h, 10 µM = 94.9

Record summary for COCC(=O)N1CCc2sccc2C1c1ccc(NCc2ccc(F)cc2)cc1 (centres unmarked) [CBK286445] : reported viability at 28.5 h, 10 µM = 89.7

Record summary for CCC(=O)N1CCCc2cc(C(O)CN3CCC(C)CC3)ccc21 (centres unmarked) [CBK282144] : reported viability at 28.5 h, 10 µM = 105

Record summary for CC(=O)Nc1cccc(-n2nnnc2SCC(=O)N2CCNC2=O)c1 [CBK305043] : reported viability at 28.5 h, 10 µM = 88.5
